Kindly state DC50 for each of the entries shown.
studySystem: CCNE1 (Homo sapiens, UniProt P24864+P24941)
Construct: host or cells: HEK293
protocolDescription: CCNE1 HIBIT PQ (protein quantification), degradation
Type: cell-based
assayContext: PQ = Protein Quantification

Query CC(C)Oc1c(-c2cn[nH]c2)ncn2nc(Nc3ccc(S(=O)(=O)c4cccc(CC5CC(c6ccc(C(=O)NC7CCC(=O)NC7=O)cc6)C5)c4)cc3F)nc12 (racemic) on CCNE1 (Homo sapiens, UniProt P24864+P24941); DC50 returned: > 3000 nM

Query CC(C)Oc1c(-c2cn[nH]c2)ncn2nc(NC3CCN(S(=O)(=O)c4cccc(CN5CCC(c6ccc7c(N8CCC(=O)NC8=O)nn(C)c7c6)CC5)c4)CC3)nc12 on CCNE1 (Homo sapiens, UniProt P24864+P24941); DC50 returned: 1.94 nM

Query CC(C)Oc1c(-c2cn[nH]c2)ncn2nc(NC3CCN(S(=O)(=O)c4cccc(CN5CCN(c6cc7c(cc6F)C(=O)N(C6CCC(=O)NC6=O)C7)CC5)c4)CC3)nc12 (racemic) on CCNE1 (Homo sapiens, UniProt P24864+P24941); DC50 returned: 8.88 nM

Query Cc1cc(S(=O)(=O)N(C)CCCN2CCC(c3ccc4c(c3)n(C)c(=O)n4C3CCC(=O)NC3=O)CC2)cc(F)c1Nc1nc2c(OC(C)C)c(-c3cn[nH]c3)ncn2n1 (racemic) on CCNE1 (Homo sapiens, UniProt P24864+P24941); DC50 returned: 0.62 nM

Query CCC1CN(c2ccc3c(N4CCC(=O)NC4=O)nn(C)c3c2)CCN1Cc1cccc(S(=O)(=O)N2CC[C@H](Nc3nc4c(OC(C)C)c(-c5cn[nH]c5)ncn4n3)[C@H](C)C2)c1 (some centres unmarked) on CCNE1 (Homo sapiens, UniProt P24864+P24941); DC50 returned: 15.2 nM

* * *

studySystem: CCNE1 (Homo sapiens, UniProt P24864+P24941)
Construct: host or cells: HEK293
protocolDescription: CCNE1 HIBIT PQ (protein quantification), degradation
Format: cell-based
assayContext: Max = Maximum
Label rule, in plain words: CCNE1 HIBIT PQ Max (%) of 70% and up is yes (1), under 70% is no (0).

Q) Exam item: decide whether the reported CCNE1 HIBIT PQ Max (%) for CC(C)Oc1c(-c2cn[nH]c2)ncn2nc(Nc3ccc(S(=O)(=O)c4cccc(C[C@H]5C[C@@H](c6ccc7c(c6)CN([C@H]6CCC(=O)NC6=O)C7=O)C5)c4)cc3F)nc12 (stereo in doubt) [Compound 81] is at least 70%.
A) no (0)

Q) Exam item: decide whether the reported CCNE1 HIBIT PQ Max (%) for CC(C)Oc1c(-c2cn[nH]c2)ncn2nc(Nc3ccc(S(=O)(=O)N4CCCC(CN5CCC(c6ccc7c(N8CCC(=O)NC8=O)nn(C)c7c6)CC5)C4)cc3F)nc12 (single isomer, unassigned) [Compound 95] is at least 70%.
A) no (0)

Q) Exam item: decide whether the reported CCNE1 HIBIT PQ Max (%) for CC(C)Oc1c(-c2cn[nH]c2)ncn2nc(Nc3ccc(S(=O)(=O)c4cccc(CN5CC6CC5CN6c5ccc6c(N7CCC(=O)NC7=O)nn(C)c6c5)c4)cc3F)nc12 (stereo not drawn) [Compound 48] is at least 70%.
A) no (0)

Q) Exam item: decide whether the reported CCNE1 HIBIT PQ Max (%) for CC(C)Oc1c(-c2cn[nH]c2)ncn2nc(Nc3ccc(S(=O)(=O)c4cccc(CN5CCC(c6ccc7c(c6)n(C)c(=O)n7C6CCC(=O)NC6=O)CC5)c4)cc3F)nc12 (racemic) [Compound 25] is at least 70%.
A) no (0)

Q) Exam item: decide whether the reported CCNE1 HIBIT PQ Max (%) for CC(C)Oc1c(-c2cn[nH]c2)ncn2nc(Nc3ccc(S(=O)(=O)N4CCC[C@@H](CN5CC[C@H](c6ccc7c(N8CCC(=O)NC8=O)nn(C)c7c6)CC5(C)C)C4)cc3F)nc12 (single isomer, unassigned) [Compound 103] is at least 70%.
A) yes (1)

Q) Exam item: decide whether the reported CCNE1 HIBIT PQ Max (%) for CC(C)Oc1c(-c2cn[nH]c2)ncn2nc(Nc3ccc(S(=O)(=O)N4CCCC(CN5CCC(c6ccc7c(N8CCC(=O)NC8=O)nn(C)c7c6)C(C)C5)C4)cc3F)nc12 (stereo not drawn) [Compound 92] is at least 70%.
A) yes (1)
